Value source: ChEMBL document CHEMBL4392836

assay: Clearance in human at 625 mg, iv; assay type: ADME; conditions: in vivo
endpoint: clearance (mL/min/kg)

>  <smiles.code>
CC(=O)NC[C@H]1CN(c2ccc(N3CCOCC3)c(F)c2)C(=O)O1

>  <observed>
1.74

$$$$

###

assay: Tmax in human at 625 mg, iv; type: ADME; settings: in vivo
endpoint: Tmax (min)

>  <compound>
CC(=O)NC[C@H]1CN(c2ccc(N3CCOCC3)c(F)c2)C(=O)O1 [LINEZOLID]

>  <observed>
30

$$$$

###

assay: Cytotoxicity against human HaCaT cells assessed as cell viability at 128 uM measured after 24 hrs by MTS assay; assay type: cell-based; conditions: read-out: Activity
endpoint: viability at 24 h, 128 µM

>  <smiles.code>
N#Cc1ccc(/C=C/c2ccc(C#N)cc2)cc1

>  <endpoint>
viability at 24 h, 128 µM

>  <observed>
> 90%

$$$$

###

tested on: Staphylococcus aureus; test: Antibacterial activity against vancomycin-resistant Staphylococcus aureus VRS10 after 18 to 24 hrs by broth microdilution assay; format: functional
endpoint: MIC (µM)

>  <compound>
CC(=O)NC[C@H]1CN(c2ccc(N3CCOCC3)c(F)c2)C(=O)O1 [LINEZOLID]

>  <endpoint>
MIC

>  <op>
=

>  <observed>
2

$$$$
>  <compound>
N#Cc1ccc(/C=C/c2ccc(C#N)cc2)cc1

>  <endpoint>
MIC

>  <op>
=

>  <observed>
8

$$$$
>  <compound>
CN[C@H](CC(C)C)C(=O)N[C@H]1C(=O)N[C@@H](CC(N)=O)C(=O)N[C@H]2C(=O)N[C@H]3C(=O)N[C@H](C(=O)N[C@H](C(=O)O)c4cc(O)cc(O)c4-c4cc3ccc4O)[C@H](O)c3ccc(c(Cl)c3)Oc3cc2cc(c3O[C@@H]2O[C@H](CO)[C@@H](O)[C@H](O)[C@H]2O[C@H]2C[C@](C)(N)[C@H](O)[C@H](C)O2)Oc2ccc(cc2Cl)[C@H]1O [VANCOMYCIN]

>  <endpoint>
MIC

>  <op>
>

>  <observed>
64

$$$$
>  <compound>
N#Cc1ccc(/C=C/c2ccc3ccccc3n2)cc1

>  <endpoint>
MIC

>  <op>
=

>  <observed>
32

$$$$

###

assay: Tmax in human at 625 mg, po; format: ADME; conditions: in vivo

>  <molecule>
CC(=O)NC[C@H]1CN(c2ccc(N3CCOCC3)c(F)c2)C(=O)O1 [LINEZOLID]

>  <readout.units>
h

>  <Tmax>
1.33

$$$$

###

assay: clinical; details: human, in vivo, iv, 625 mg
Description: Half life in human at 625 mg, iv

>  <smiles.code>
CC(=O)NC[C@H]1CN(c2ccc(N3CCOCC3)c(F)c2)C(=O)O1

>  <readout.units>
h

>  <half-life>
4.4

$$$$

###

assay: Cmax in human at 625 mg, iv; assay type: ADME; design: dose 625 mg, route intravenous; conditions: in vivo

>  <smiles.code>
CC(=O)NC[C@H]1CN(c2ccc(N3CCOCC3)c(F)c2)C(=O)O1

>  <Cmax [ng/mL]>
13400

$$$$

###

system: Staphylococcus aureus; assay: Antibacterial activity against methicillin-resistant Staphylococcus aureus NRS119 after 18 to 24 hrs by broth microdilution assay; type: functional
Listing of recorded MIC by entry.

>  <smiles.code>
N#Cc1ccc(/C=C/c2ccc3ccccc3n2)cc1

>  <assayed.system>
Staphylococcus aureus

>  <MIC>
4 µM

$$$$
>  <smiles.code>
N#Cc1ccc(/C=C/c2ccc(C#N)cc2)cc1

>  <assayed.system>
Staphylococcus aureus

>  <MIC>
1 µM

$$$$
>  <smiles.code>
N#Cc1ccccc1/C=C/c1ccccc1

>  <assayed.system>
Staphylococcus aureus

>  <MIC>
4 µM

$$$$
>  <smiles.code>
CN[C@H](CC(C)C)C(=O)N[C@H]1C(=O)N[C@@H](CC(N)=O)C(=O)N[C@H]2C(=O)N[C@H]3C(=O)N[C@H](C(=O)N[C@H](C(=O)O)c4cc(O)cc(O)c4-c4cc3ccc4O)[C@H](O)c3ccc(c(Cl)c3)Oc3cc2cc(c3O[C@@H]2O[C@H](CO)[C@@H](O)[C@H](O)[C@H]2O[C@H]2C[C@](C)(N)[C@H](O)[C@H](C)O2)Oc2ccc(cc2Cl)[C@H]1O

>  <assayed.system>
Staphylococcus aureus

>  <MIC>
1 µM

$$$$
>  <smiles.code>
CC(=O)NC[C@H]1CN(c2ccc(N3CCOCC3)c(F)c2)C(=O)O1

>  <assayed.system>
Staphylococcus aureus

>  <MIC>
32 µM

$$$$
